- System: MOLT-4 leukemia
- assay-remarks: NCI tumour cell line growth inhibition, 48 h
observable: GI50

Check out these entries, answers already filled in.
- test-smiles: "O=C(Nc1cccc(-n2cc(-c3ccncc3)c(-c3cc(O)cc(Cl)c3)n2)c1)Nc1ccc(Cl)c(Cl)c1"
  GI50: "1.43 µM"
- test-smiles: "CNC(=O)c1cc(Oc2ccc3nc(NC(=O)c4cc(C(F)(F)F)cc(C(F)(F)F)c4)sc3c2)ccn1"
  GI50: "2.62 µM"
- test-smiles: "C=C1CCCC(C)(C)[C@@H]1CC/C(C)=C/Cn1c2cccc(=O)c-2nc2ccccc21"
  GI50: "5.55 µM"

Turning to the following compound.
In: Give the reported GI50 for this compound. `NCC(=O)Nc1ccc(-n2nc(C(F)(F)F)cc2-c2ccc3c(ccc4ccccc43)c2)cc1`
Out: 0.809 µM

* * *

- Tested on: RXF 393 renal
- assay-remarks: NCI tumour cell line growth inhibition, 48 h
Recorded TGI by entry
State just the number; it will be interpreted in µM.

- compound: "C[C@H]1O[C@@H](O[C@H]2[C@@H](O)C[C@H](O[C@H]3[C@@H](O)C[C@H](O[C@H]4CC[C@]5(C)C6C[C@@H](O)[C@]7(C)[C@@H](C8=CC(=O)OC8)CC[C@]7(O)C6CC[C@@H]5C4)O[C@@H]3C)O[C@@H]2C)C[C@H](O)[C@@H]1O (stereo not given in full)"
  observed-result: 0.198
- compound: "C=C1C(=O)O[C@H]2[C@H]1CC/C(COC(=O)NCc1c[nH]c3ccc(OC)cc13)=C\\CC[C@@]1(C)O[C@@H]21"
  observed-result: 2.52
- compound: "O=C1C(=O)c2ccccc2C=C1[N+](=O)[O-]"
  observed-result: 78.9

In: For `CC(C)=C1C(=O)C[C@]2(C)C/C=C(\C)CC/C=C(\C)CC[C@@H]12` , write its TGI.
Out: 15.2

In: Check the records and state TGI for `O=C(COC(c1ccc(F)cc1)c1ccc(F)cc1)N1CCN(CCCc2ccccc2)CC1`
Out: 8.1

In: // fetch TGI given entry `C/C(=N\N=C(\N)OB(F)F)c1ccccn1`
Out: 42.6

In: For the compound `O=C(O[C@H]1CN[C@H](C#Cc2cc3ncnc(Nc4ccc(Cc5ccccc5)cc4)c3s2)C1)N1CCOCC1` , give its measured TGI value.
Out: 7.11

In: Recall and state the measured TGI for `CCOc1ccc(/C=N/Nc2cc(C)nc3ccc(Cl)cc23)cc1` .
Out: 3.06

* * *

We begin with a simple list: items and their reported TGI.
- System: HCT-15 colon
- assay-remarks: NCI tumour cell line growth inhibition, 48 h

- compound: "C[CH2][Sn]1([CH2]C)[O]C2C(O)OC(CO)C(O)C2[O]1 (stereo unspecified)"
  observed-result: "> 100 µM"

Pending compound:
In: Tell us which TGI value is on record for `NC(N)=NS(=O)(=O)c1ccc(Nc2c3ccccc3nc3c(C(=O)N4CCN(CCO)CC4)ccc(Cl)c23)cc1`
Out: > 100 µM

* * *

- Tested on: UO-31 renal
- assay-remarks: NCI tumour cell line growth inhibition, 48 h
Please use TRUE whenever TGI is not below 30 µM, and FALSE whenever it is.

- molecule: "Nc1ccc(S(=O)(=O)Nc2nc3ccccc3nc2Nc2ccc(S(N)(=O)=O)cc2)cc1"
  class-label: "TRUE"
- molecule: "O=C(Nc1cccnc1)c1cccs1"
  class-label: "TRUE"
- molecule: "O=C(/C=C/c1ccccc1O)c1ccccc1"
  class-label: "FALSE"
- molecule: "CC1=C(C)C(=O)c2c(cc3c4ccccc4ccn23)C1=O"
  class-label: "TRUE"
- molecule: "CCCCN(CCCC)c1cc(C(=O)CCCCCN)c2ccccc2n1"
  class-label: "FALSE"

In: Does the molecule `Cc1cc(=O)[nH]c(CNC(=O)c2cccc3ccccc23)n1` have recorded TGI that is 30 µM or more?
Out: TRUE

In: For this molecule, is measured TGI 30 µM or higher? `O=[N+]([O-])c1ccc(Oc2cccnc2)c([N+](=O)[O-])c1`
Out: FALSE

In: Entry `Cn1c(=O)c2c(ncn2CCCCn2ccnc2[N+](=O)[O-])n(C)c1=O` : is its TGI no less than 30 µM?
Out: TRUE

In: Hi, just wondering whether CCC(C#N)N(Cc1ccc(CN(C(=O)c2ccccc2)C(C#N)CC)cc1)C(=O)c1ccccc1 (stereo unspecified) shows TGI of 30 µM or higher.
Out: TRUE

In: Does the reported TGI for CCOC(=O)C(C)OC(=O)c1ccc(C)cc1 (stereo unspecified) fall at or above the 30 µM mark?
Out: TRUE
